# System: AHR-dependent transcription of the CYP1A1 gene
# Assay Method Text: CYP1A1 induction in mouse macrophages
# Assay type: cell-based
# Assay Conditions: 50 nM
Experimental Readout: CYP1A1 induction (% of ITE ± SEM)

Go through the list and state CYP1A1 induction (% of ITE ± SEM) for each entry.
1. O=C(OC1CCCCC1)c1cccc(C(=O)c2c[nH]c3ccccc23)n1
2. CC(=O)Oc1cccc(C(=O)c2c[nH]c3ccccc23)c1
3. CCOC(=O)c1cccc(C(=O)c2c[nH]c3ccccc23)n1
4. COC(=O)c1cccc(C(=O)c2c[nH]c3cc(Cl)ccc23)n1
5. COC(=O)c1ccc(C(=O)c2c[nH]c3ccccc23)cc1
6. COC(=O)c1cccc(C(=O)c2c[nH]c3ccccc23)c1
7. COC(=O)c1cccc(C(=O)c2c[nH]c3ccccc23)n1
8. COc1ccc(C(=O)c2c[nH]c3ccccc23)cc1

["19 ± 4 % of ITE", "5 ± 3 % of ITE", "8 ± 2 % of ITE", "169 ± 59 % of ITE", "20 ± 16 % of ITE", "3 ± 1 % of ITE", "143 ± 90 % of ITE", "19 ± 8 % of ITE"]

###

# Test system: AHR-dependent transcription of the CYP1A1 gene
# Assay Method Text: CYP1A1 induction in mouse macrophages
# Type: cell-based
# Assay Conditions: 5 μM
# Experimental: Mouse macrophages were also used to test AHR-dependent transcription of the CYP1A1 gene in vivo. Finally, the activity of exemplary compounds of Formula (I) described herein was tested in the human […] cell line U937. The U937 cell line is derived from a patient with diffuse histiocytic lymphoma. Tables 2-4 summarize structure-activity relationship data collected for exemplary, non-limiting compounds of Formula (I) described herein.
Field: CYP1A1 induction (% of ITE ± SEM). Provide a value for each of the molecules that follow.

Please review the following examples before continuing.
>>> print(df.to_string())
                                   molecule      result_value
0  O=C(O)c1cccc(C(=O)c2c[nH]c3ccccc23)n1 [Compound 3]  97 ± 16 % of ITE
1  COC(=O)c1cccc(C(=O)c2c[nH]c3ccc(Cl)cc23)n1 [Compound 15]  89 ± 44 % of ITE

Go through the list and state CYP1A1 induction (% of ITE ± SEM) for each entry.
1. COC(=O)c1csc(C(=O)c2c[nH]c3ccccc23)n1 [ITE, reference compound]
2. N#Cc1cccc(C(=O)c2c[nH]c3ccccc23)n1 [Compound 108]
3. COC(=O)c1cccc(C(=O)c2c[nH]c3ccc(OC)cc23)n1 [Compound 19]
4. COC(=O)c1ccc(C(=O)c2c[nH]c3ccccc23)s1 [Compound 24]
5. O=C(c1cccc(N2CCOCC2)n1)c1c[nH]c2ccccc12 [Compound 110]
6. O=C(c1ccccc1)c1c[nH]c2ccccc12 [Compound 7]

100 % of ITE
94 ± 24 % of ITE
120 ± 13 % of ITE
59 ± 22 % of ITE
46 ± 4 % of ITE
0.6 ± 0.2 % of ITE

Go through the list and state CYP1A1 induction (% of ITE ± SEM) for each entry.
1. CC(C)OC(=O)c1cccc(C(=O)c2c[nH]c3ccccc23)n1 [Compound 1]
2. CCOC(=O)c1cccc(C(=O)c2c[nH]c3ccccc23)n1 [Compound 147]

1. 128 ± 11 % of ITE
2. 52 ± 28 % of ITE
